subject of test: Proteasome subunit beta (Trypanosoma cruzi)
assay remarks: Trypanosoma cruzi proteasome chymotrypsin-like activity (TcProtChymo) assay. Further: in the data most compounds retested in dose-response had high values.
Type: functional
Parameters: scale not given: direction of the effect not stated beside the values
test settings: 9.37 µM
Classification field: enter y for Percent Effect values not below 10%, n for values below it.

compound: Cn1ncc2c1C(COCC1CC1)CN(Cc1ccc(F)cc1)C2 (stereo not given)
label: n
//
compound: Cc1cccc(NC(=O)N2CCCn3cnc(CN4CCCC4)c3C2)c1
label: y
//
compound: COc1ncccc1C(=O)NCC1Cc2ccccc2O1 (stereo not given)
label: y

----------
subject of test: AMP-activated protein kinase, AMPK (Homo sapiens) (UniProt P54646+O43741+P54619+Q9UGJ0+Q9Y478+Q13131+Q9UGI9)
assay remarks: AMP-dependent Kinase enzyme assay. An in vitro enzyme assay that detects ADP turnover that is directly proportional to AMPK activity. This uses naive AMPK that is activated during the assay with MK-8722
Type: functional
Parameters: scale not given: direction of the effect not stated beside the values
test settings: 30 µM
Reported Percent Effect values for the following molecules.

molecule: O=C1COC2(COCCN(Cc3cccnc3)C2)CN1c1ccoc1 (centres undefined)
Percent Effect, %: 2.84

molecule: Cc1ccc(CN2CCN(CC3CC3)[C@@H]3CS(=O)(=O)C[C@@H]32)cc1C
Percent Effect, %: -1.63

molecule: CCN1CCN(C(=O)c2cnn(-c3ccccc3Cl)c2)CC1
Percent Effect, %: -8.79

molecule: CC(C)n1ccnc1C1CCCN(c2ccccn2)C1 (centres undefined)
Percent Effect, %: -0.644

molecule: Cn1cc(C(=O)N2C[C@@H]3COC[C@]3(COCc3cccnc3)C2)cn1
Percent Effect, %: 7.58

molecule: CN(C)c1ccc(CNC(=O)c2ccc(Cl)cc2F)cc1
Percent Effect, %: -2.58

molecule: O=C(Cc1ccc2c(c1)CCCC2)NCCc1ccccn1
Percent Effect, %: -4.68

molecule: CCOCCC(=O)N1CCCN(Cc2csc(CC)n2)CC1
Percent Effect, %: 1.45

molecule: O=C(c1cccc(F)c1)N1CCOC(c2nc(-c3ncccn3)no2)C1 (centres undefined)
Percent Effect, %: 0.687

molecule: Cc1nn(C)c(N2CCOCC2)c1CNC1CCOc2ccccc21 (centres undefined)
Percent Effect, %: -4.31

molecule: CCn1cnnc1CNC(=O)c1cc(Cl)ccc1OC
Percent Effect, %: 8.8

molecule: CN(C)C1CCN(C(=O)c2ccc(Cn3ccccc3=O)o2)CC1
Percent Effect, %: 3.53

molecule: Cc1cc(C)n(C2CCCN(C(=O)c3cccc4[nH]ncc34)C2)n1 (centres undefined)
Percent Effect, %: 6.86

molecule: O=C(c1cccc(=O)[nH]1)N(Cc1ccsc1)CC1CCCO1 (centres undefined)
Percent Effect, %: -7.24

molecule: Cc1cnn(CCNCc2ccc(OCC(N)=O)cc2)c1
Percent Effect, %: -3.69

molecule: CC[C@@H]1N(CC2CC2)CCC[C@]12CCC(=O)N2CCOC
Percent Effect, %: 5.19

molecule: COc1ccc(CN2CCn3c(CNS(C)(=O)=O)nnc3C2)cc1
Percent Effect, %: -37.8

molecule: CCn1c(CN(C)C)nnc1C1CCN(Cc2cccc(OC)c2)CC1
Percent Effect, %: -4.93

molecule: Cc1ccc(N2CCCc3sc(C(=O)NCc4cccnc4)nc32)nn1
Percent Effect, %: -0.787

molecule: COCc1noc(C2(c3ccc(OC)cc3)CCOCC2)n1
Percent Effect, %: 0.468

molecule: COc1ccc(C2CCCN2C(=O)CCNc2ncccn2)cc1 (centres undefined)
Percent Effect, %: -2.54

molecule: COc1ccccc1CC1CCCN(CCC#N)C1 (centres undefined)
Percent Effect, %: -0.847

molecule: COCCC(=O)N1CCC2(COCc3cnc(-c4ccccc4)nc32)C1 (centres undefined)
Percent Effect, %: 15.5

molecule: Cc1cc2c(cc1C)C(NCc1nnc3n1CCCCC3)CCCO2 (centres undefined)
Percent Effect, %: -8.53
